target_entity: ATP-sensitive inward rectifier potassium channel 1 (Homo sapiens) (UniProt P48048)
Sequence (P48048 whole entry, looked up): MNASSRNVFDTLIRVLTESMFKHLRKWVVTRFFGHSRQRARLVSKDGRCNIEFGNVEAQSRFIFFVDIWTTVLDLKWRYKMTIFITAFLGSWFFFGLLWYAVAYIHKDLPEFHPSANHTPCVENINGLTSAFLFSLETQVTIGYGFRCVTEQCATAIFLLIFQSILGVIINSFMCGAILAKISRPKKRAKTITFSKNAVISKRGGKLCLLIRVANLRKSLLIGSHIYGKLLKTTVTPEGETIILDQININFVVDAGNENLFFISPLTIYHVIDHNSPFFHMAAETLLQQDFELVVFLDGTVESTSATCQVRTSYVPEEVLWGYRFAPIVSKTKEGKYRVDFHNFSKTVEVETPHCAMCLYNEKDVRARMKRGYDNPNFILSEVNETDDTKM
protocol_notes: Kir1.1 channel activity modulation, library screen – cell-based, thallium flux, MLSMR library, primary screen (AID 1918);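 also: B-score of the F/F0 ratio slope over 7 to 12 s after thallium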
recorded_conditions: Tet-inducible ROMK, thallium flux fluorescence; at 10 µM; actives lie on both sides
Among all 130,000 compounds or so, about 2,500 (1.9%) were called active. The list comes from a sample in which actives are over-represented; it also holds close analogues and randomly drawn compounds.
Returns one of True or False; True when B-score is >= -0.01.

Worked cases, answers included:
{"compound": "CCN1CCN(c2ccc([N+](=O)[O-])cc2C#N)CC1", "classification": "False"}
{"compound": "CC(Cc1cccs1)NCc1ccc(Cl)cc1 (configuration not stated)", "classification": "True"}
{"compound": "CSc1nc2ccc(C)cc2c(=O)n1-c1cccnc1", "classification": "False"}
{"compound": "CNC(=O)O/N=C(\\N)Cc1csc2ccccc12", "classification": "True"}
{"compound": "COC(=O)N1C(c2ccccc2)C1c1ccccc1 (configuration not stated)", "classification": "True"}
{"compound": "O=C(Nc1cccc2ccccc12)N1CCC2(CC1)OCCO2", "classification": "False"}

Enquiry: Quick check, B-score >= -0.01? CC(C)CN1CCN(Cc2ccccc2C(F)(F)F)CC1CCO (configuration not stated)
Return: False

---

target_entity: ATP-sensitive inward rectifier potassium channel 1 (Homo sapiens) (UniProt P48048)
protocol_notes: Kir1.1 channel activity modulation, library screen – cell-based, thallium flux, MLSMR library, primary screen (AID 1918);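 also: B-score of the F/F0 ratio slope over 7 to 12 s after thallium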
recorded_conditions: Tet-inducible ROMK, thallium flux fluorescence; at 10 µM; actives lie on both sides
Hit rate of the full screen: of about 130,000 compounds, about 2,500 (1.9%) were called active. This excerpt belongs to a sample that is enriched for actives.
# thresholds on B-score define classes: bottom end (below -0.8), midrange (-0.8 to below 0.2), top end (0.2 or more)

Worked cases, answers included:
{"compound": "O=c1[nH]c(=O)n(CCc2ccccc2)c(O)c1/C=N/N1CCOCC1", "target_entity": "ATP-sensitive inward rectifier potassium channel 1 (Homo sapiens) (UniProt P48048)", "classification": "midrange"}
{"compound": "CCCOC(=O)C1C2c3ccccc3C(c3ccccc32)C1C(=O)O (stereo not given)", "target_entity": "ATP-sensitive inward rectifier potassium channel 1 (Homo sapiens) (UniProt P48048)", "classification": "top end"}
{"compound": "O=C(Cn1c(=O)n(CC2CS2)c2ccccc21)N1CCCCC1 (stereo not given)", "target_entity": "ATP-sensitive inward rectifier potassium channel 1 (Homo sapiens) (UniProt P48048)", "classification": "top end"}
{"compound": "COc1ccccc1N=Nc1c(O)[nH]c(=S)[nH]c1=O", "target_entity": "ATP-sensitive inward rectifier potassium channel 1 (Homo sapiens) (UniProt P48048)", "classification": "bottom end"}
{"compound": "Cc1cc(C=C2C(=O)NC(=O)NC2=O)c(C)n1-c1ccncc1", "target_entity": "ATP-sensitive inward rectifier potassium channel 1 (Homo sapiens) (UniProt P48048)", "classification": "bottom end"}

Enquiry: Into which category would you place Clc1ccc2nc3c(c(-c4ccccc4)c2c1)CNCC3 ?
Return: bottom end

Enquiry: And the next one, O=c1[nH]c(=O)n(-c2ccccc2)c(O)c1C=NC12CN3CN(CN(C3)C1)C2 ?
Return: top end

Enquiry: And the next one, Cc1cc(/C=C2/C(=O)NC(=O)N(Cc3ccco3)C2=O)c(C)n1-c1ccc(C(=O)O)cc1 ?
Return: midrange

Enquiry: And the next one, CC1=C2C(=O)C3C(CC=C4CC(OC5OC(O)C(O)C(O)C5CO)CCC43C)C2CCC12OC1CC(C)CNC1C2C (stereo not given) ?
Return: midrange
